test system: S. agalactiae ATCC 13813; assay: In vitro antimicrobial activity, MIC by broth micro-dilution; format: cell-based; conditions: Streptococcus agalactiae, ATCC13813, read-out: MIC
Endpoint name: MIC

Answered cases to consult:
INSERT INTO results (molecule, assay_target, observed) VALUES
  ('CCCCCCCCCCCCCCCC(=O)N(C)[C@H](CO)C(=O)N[C@H](C)C(=O)NCC(=O)N(C)[C@@H]1C(=O)N[C@@H](C)C(=O)N[C@H](C(=O)NS(C)(=O)=O)Cc2ccc(O)c(c2)-c2cc1ccc2O', 'S. agalactiae ATCC 13813', '32 µg/mL'),
  ('CCCCCCCCCCCCCCCC(=O)N(C)[C@H](CO)C(=O)N[C@H](C)C(=O)NCC(=O)N(C)[C@@H]1C(=O)N[C@@H](C)C(=O)N[C@H](C(=O)O)Cc2ccc(O)c(c2)-c2cc1ccc2O', 'S. agalactiae ATCC 13813', '16 µg/mL'),
  ('CCCCCCCCCCCCCCCC(=O)N(C)[C@H](CO)C(=O)N[C@H](C)C(=O)NCC(=O)N(C)[C@@H]1C(=O)N[C@@H](C)C(=O)N[C@H](C(=O)NC(C)C=O)Cc2ccc(O)c(c2)-c2cc1ccc2O (stereo partly shown)', 'S. agalactiae ATCC 13813', '> 64 µg/mL');

We now examine a further molecule.
Any idea what MIC came out for CCCCCCCCCCCCCCCC(=O)N(C)[C@H](CO)C(=O)N[C@H](C)C(=O)NCC(=O)N(C)[C@@H]1C(=O)N[C@@H](C)C(=O)N[C@H](C(=O)N[C@@H](C)C(=O)N2CCC[C@H]2C(=O)O)Cc2ccc(O)c(c2)-c2cc1ccc2O on S. agalactiae ATCC 13813?
8 µg/mL

// data source = patent US10501493B2
